test system: MV4-11 cells; experiment: MV4-11 Cell Cytotoxicity Assay; type: cell-based, human; conditions: human, MV4-11 cells, CCK-8
Listed molecules paired with reported IC50 at 72 h
readout_kind: IC50 at 72 h

molecule=Cc1sc2c(c1C)C(c1ccc(Cl)cc1)=N[C@@H](CC(=O)N1CCC(CN3CCN(Cc4ccc(-n5c(C(N)=O)nnc5-c5ccc(O)cc5O)cc4)CC3)CC1)c1nnc(C)n1-2 result="< 100 nM"
molecule=Cc1sc2c(c1C)C(c1ccc(Cl)cc1)=N[C@@H](CC(=O)N1CCC(CN3CCN(Cc4ccc(-n5c(C(=O)NC(C)C)nnc5-c5cc(C(C)C)c(O)cc5O)cc4)CC3)CC1)c1nnc(C)n1-2 result="100 to 1000 nM"
molecule=CCc1cc(-c2nnc(O)n2-c2ccc(CN3CCN(CC4CCN(C(=O)C[C@H]5N=C(c6ccc(Cl)cc6)c6c(sc(C)c6C)-n6c(C)nnc65)CC4)CC3)cc2)c(O)cc1O result="< 100 nM"
molecule=Cc1sc2c(c1C)C(c1ccc(Cl)cc1)=N[C@@H](CC(=O)NCCOCCOCCN[C@@H](C)C(=O)N[C@H](C(=O)N1CCC[C@H]1C(=O)Nc1snnc1-c1ccccc1)C1CCCCC1)c1nnc(C)n1-2 result="> 1000 nM"
molecule="Cc1sc2c(c1C)C(c1ccc(Cl)cc1)=N[C@@H](CC(=O)NCC(=O)NCC1CCN(C(=O)C3CCN(Cc4ccc(-n5c(O)nnc5-c5cc(C(C)C)c(O)cc5O)cc4)CC3)C1)c1nnc(C)n1-2 (stereo partly drawn)" result="< 100 nM"
molecule=CCc1cc(-c2nnc(O)n2-c2ccc(CN3CCN(CC4CCN(CC[C@@H]5N=C(c6ccc(Cl)cc6)c6c(sc(C)c6C)-n6c(C)nnc65)CC4)CC3)cc2)c(O)cc1O result="100 to 1000 nM"
molecule=Cc1sc2c(c1C)C(c1ccc(Cl)cc1)=N[C@@H](CC(=O)N1CCC(CN3CCC(Cc4ccc(-n5c(C(=O)NCC(F)(F)F)nnc5-c5cc(C(C)C)c(O)cc5O)cc4)CC3)CC1)c1nnc(C)n1-2 result="< 100 nM"
molecule=CCNC(=O)c1nnc(-c2cc(CC)c(O)cc2O)n1-c1ccc(CC2CCN(CC3CCN(C(=O)C[C@@H]4N=C(c5ccc(Cl)cc5)c5c(sc(C)c5C)-n5c(C)nnc54)CC3)CC2)cc1 result="< 100 nM"
molecule=CCN(Cc1ccc(OCCCNC(=O)C[C@@H]2N=C(c3ccc(Cl)cc3)c3c(sc(C)c3C)-n3c(C)nnc32)cc1)Cc1ccc(-n2c(C(=O)NCC(F)(F)F)nnc2-c2cc(C(C)C)c(O)cc2O)cc1 result="< 100 nM"
molecule=CCc1cc(-c2nnc(C(=O)NCC(F)(F)F)n2-c2ccc(CC3CCN(CC4CCN(C(=O)C[C@@H]5N=C(c6ccc(Cl)cc6)c6c(sc(C)c6C)-n6c(C)nnc65)CC4)CC3)cc2)c(O)cc1O result="< 100 nM"
molecule=Cc1sc2c(c1C)C(c1ccc(Cl)cc1)=N[C@@H](CC(=O)N1CCC(N3CCN(c4ccc(-n5c(O)nnc5-c5cc(C(C)C)c(O)cc5O)cc4)CC3)CC1)c1nnc(C)n1-2 result="< 100 nM"
molecule=Cc1sc2c(c1C)C(c1ccc(Cl)cc1)=N[C@@H](CC(=O)NCC(=O)NCCOc1ccc(-n3c(S)nnc3-c3cc(C(C)C)c(O)cc3O)cc1)c1nnc(C)n1-2 result="100 to 1000 nM"
molecule=Cc1sc2c(c1C)C(c1ccc(Cl)cc1)=N[C@@H](CC(=O)NCC1CN(C(=O)C3CCN(Cc4ccc(-n5c(O)nnc5-c5cc(C(C)C)c(O)cc5O)cc4)CC3)C1)c1nnc(C)n1-2 result="< 100 nM"
molecule=Cc1sc2c(c1C)C(c1ccc(Cl)cc1)=N[C@@H](CC(=O)NCCOc1ccc(-n3c(S)nnc3-c3cc(C(C)C)c(O)cc3O)cc1)c1nnc(C)n1-2 result="100 to 1000 nM"
molecule=Cc1sc2c(c1C)C(c1ccc(Cl)cc1)=N[C@@H](CC(=O)NCCOCCOc1ccc(-n3c(S)nnc3-c3cc(C(C)C)c(O)cc3O)cc1)c1nnc(C)n1-2 result="100 to 1000 nM"

* * *

target: BRD4 (BD1+BD2) (Homo sapiens, UniProt O60885); construct: 1.8 μg/ml recombinant BRD4 (BD1+BD2 domains) protein; settings: read-out: BRD4 Binding Potency
readout_kind: IC50

structure_notation=Cc1sc2c(c1C)C(c1ccc(Cl)cc1)=N[C@@H](CC(=O)N(C)CCOc1ccc(CN(C)Cc3ccc(-n4c(C(=O)NCC(F)(F)F)nnc4-c4cc(C(C)C)c(O)cc4O)cc3)cc1)c1nnc(C)n1-2 measurement_target="BRD4 (BD1+BD2) (Homo sapiens, UniProt O60885)" result="> 1000 nM"
structure_notation=Cc1sc2c(c1C)C(c1ccc(Cl)cc1)=N[C@@H](CC(=O)NCC(=O)NCC1CCN(C(=O)C3CCN(Cc4ccc(-n5c(O)nnc5-c5cc(C(C)C)c(O)cc5O)cc4)CC3)CC1)c1nnc(C)n1-2 measurement_target="BRD4 (BD1+BD2) (Homo sapiens, UniProt O60885)" result="< 100 nM"

* * *

test system: MV4-11 cells; assay: MV4-11 Cell Cytotoxicity Assay; assay type: cell-based, human; conditions: human, MV4-11 cells, CCK-8
Entries annotated with measured IC50 at 72 h
readout_kind: IC50 at 72 h

structure_notation=Cc1sc2c(c1C)C(c1ccc(Cl)cc1)=N[C@@H](CC(=O)N1CCN(Cc3ccc(-n4c(O)nnc4-c4cc(C(C)C)c(O)cc4O)cc3)CC1)c1nnc(C)n1-2 result="< 100 nM"
structure_notation=Cc1sc2c(c1C)C(c1ccc(Cl)cc1)=N[C@@H](CC(=O)N(C)CCOc1ccc(CN(C)Cc3ccc(-n4c(O)nnc4-c4cc(C(C)C)c(O)cc4O)cc3)cc1)c1nnc(C)n1-2 result="< 100 nM"
structure_notation=Cc1sc2c(c1C)C(c1ccc(Cl)cc1)=N[C@@H](CC(=O)N1CCN(c3ccc(-n4c(O)nnc4-c4cc(C(C)C)c(O)cc4O)cc3)CC1)c1nnc(C)n1-2 result="< 100 nM"

* * *

Record set of pIC50 for target or system HSP90α (Homo sapiens).
pIC50: −log10 of the molar value. Counter-ions that a name gives are not always drawn.
readout_kind: pIC50

compound="Cc1sc2c(c1C)C(c1ccc(Cl)cc1)=N[C@@H](CC(=O)N1CCC(Cc3ccc(CN(C)Cc4ccc(-n5c(O)nnc5-c5cc(C(C)C)c(O)cc5O)cc4)cc3)CC1)c1nnc(C)n1-2 [Compound 83, trifluoroacetic acid]" measurement_target="HSP90α (Homo sapiens)" result="6.00 to 7.00"
compound="CCNC(=O)c1noc(-c2cc(C(C)C)c(O)cc2O)c1-c1ccc(CN2CCN(CC3CCN(C(=O)C[C@@H]4N=C(c5ccc(Cl)cc5)c5c(sc(C)c5C)-n5c(C)nnc54)CC3)CC2)cc1 [Compound 126, hydrochloride]" measurement_target="HSP90α (Homo sapiens)" result="6.00 to 7.00"
compound="Cc1sc2c(c1C)C(c1ccc(Cl)cc1)=N[C@@H](CC(=O)N1CCN(Cc3ccc4c(c3)CN(C(=O)c3ccc(O)cc3O)C4)CC1)c1nnc(C)n1-2 [Compound 143]" measurement_target="HSP90α (Homo sapiens)" result="6.00 to 7.00"
compound="Cc1sc2c(c1C)C(c1ccc(Cl)cc1)=N[C@@H](CC(=O)N1CCC(CN3CCN(Cc4ccc(-n5c(C(N)=O)nnc5-c5ccc(O)cc5O)cc4)CC3)CC1)c1nnc(C)n1-2 [Compound 112, trifluoroacetic acid]" measurement_target="HSP90α (Homo sapiens)" result="6.00 to 7.00"
compound="Cc1sc2c(c1C)C(c1ccc(Cl)cc1)=N[C@@H](CC(=O)N1CCC(CN3CCN(Cc4ccc(-n5c(C(N)=O)nnc5-c5cc(C(C)C)c(O)cc5O)cc4)CC3)CC1)c1nnc(C)n1-2 [Compound 109, trifluoroacetic acid]" measurement_target="HSP90α (Homo sapiens)" result="6.00 to 7.00"
compound="Cc1sc2c(c1C)C(c1ccc(Cl)cc1)=N[C@@H](CC(=O)N1CCN(c3ccc(-n4c(O)nnc4-c4cc(C(C)C)c(O)cc4O)cc3)CC1)c1nnc(C)n1-2 [Compound 79]" measurement_target="HSP90α (Homo sapiens)" result="6.00 to 7.00"
compound="Cc1sc2c(c1C)C(c1ccc(Cl)cc1)=N[C@@H](CC(=O)N(C)CCOc1ccc(CN(C)Cc3ccc(-n4c(O)nnc4-c4cc(C(C)C)c(O)cc4O)cc3)cc1)c1nnc(C)n1-2 [Compound 99, formic acid]" measurement_target="HSP90α (Homo sapiens)" result="6.00 to 7.00"
compound="COc1cccc(-c2cc(C(=O)Nc3ccc(-c4ccc(OC5CCN(CC[C@@H]6N=C(c7ccc(Cl)cc7)c7c(sc(C)c7C)-n7c(C)nnc76)CC5)cc4OCCN(C)C)cc3)ccc2OC)c1 [Compound 140]" measurement_target="HSP90α (Homo sapiens)" result="< 6.00"
compound="Cc1cc(-c2nnc(C(=O)NCC(F)(F)F)n2-c2ccc(CN3CCN(CC4CCN(C(=O)C[C@@H]5N=C(c6ccc(Cl)cc6)c6c(sc(C)c6C)-n6c(C)nnc65)CC4)CC3)cc2)c(O)cc1O [Compound 15, trifluoroacetic acid]" measurement_target="HSP90α (Homo sapiens)" result="6.00 to 7.00"
compound="Cc1sc2c(c1C)C(c1ccc(Cl)cc1)=N[C@@H](CC(=O)N1CCC(N3CCN(Cc4ccc(-n5c(O)nnc5-c5cc(C(C)C)c(O)cc5O)cc4)CC3)CC1)c1nnc(C)n1-2 [Compound 42, trifluoroacetic acid]" measurement_target="HSP90α (Homo sapiens)" result="6.00 to 7.00"
compound="Cc1sc2c(c1C)C(c1ccc(Cl)cc1)=N[C@@H](CC(=O)N1CCC(CCN[C@@H](C)C(=O)N[C@H](C(=O)N3CCC[C@H]3C(=O)Nc3snnc3-c3ccccc3)C3CCCCC3)CC1)c1nnc(C)n1-2 [Compound 130]" measurement_target="HSP90α (Homo sapiens)" result="< 6.00"
compound="CCc1cc(-c2nnc(O)n2-c2ccc(CN3CCC(C(=O)N4CCC(CNC(=O)C[C@@H]5N=C(c6ccc(Cl)cc6)c6c(sc(C)c6C)-n6c(C)nnc65)C4)CC3)cc2)c(O)cc1O (stereo partly drawn) [Compound 77, trifluoroacetic acid]" measurement_target="HSP90α (Homo sapiens)" result="6.00 to 7.00"
compound="Cc1sc2c(c1C)C(c1ccc(Cl)cc1)=N[C@@H](CC(=O)NCCOc1cccc(CN(C)Cc3ccc(-n4c(O)nnc4-c4cc(C(C)C)c(O)cc4O)cc3)c1)c1nnc(C)n1-2 [Compound 50, trifluoroacetic acid, trifluoroacetic …]" measurement_target="HSP90α (Homo sapiens)" result="6.00 to 7.00"
compound="CCn1c(=O)/c(=C2\\Sc3ccccc3N2C)s/c1=C\\c1cccc[n+]1CCNC(=O)C[C@@H]1N=C(c2ccc(Cl)cc2)c2c(sc(C)c2C)-n2c(C)nnc21 [Compound 8]" measurement_target="HSP90α (Homo sapiens)" result="< 6.00"
compound="Cc1sc2c(c1C)C(c1ccc(Cl)cc1)=N[C@@H](CC(=O)N1CCC(CN3CCN(Cc4ccc(-n5c(C(=O)NCCN6CCCCC6)nnc5-c5ccc(O)cc5O)cc4)CC3)CC1)c1nnc(C)n1-2 [Compound 110, trifluoroacetic acid]" measurement_target="HSP90α (Homo sapiens)" result="6.00 to 7.00"
compound="Cc1nn(-c2ccc(C(N)=O)c(NCCOCCN3CCN(C(=O)C[C@@H]4N=C(c5ccc(Cl)cc5)c5c(sc(C)c5C)-n5c(C)nnc54)CC3)c2)c2c1C(=O)CC(C)(C)C2 [Compound 24]" measurement_target="HSP90α (Homo sapiens)" result="< 6.00"
compound="Cc1sc2c(c1C)C(c1ccc(Cl)cc1)=N[C@@H](CC(=O)N1CCC(CN3CCC(Cc4ccc(-n5c(C(=O)NCC(F)(F)F)nnc5-c5cc(C(C)C)c(O)cc5O)cc4)CC3)CC1)c1nnc(C)n1-2 [Compound 85, formic acid]" measurement_target="HSP90α (Homo sapiens)" result="6.00 to 7.00"
compound="CCc1cc(-c2nnc(C(N)=O)n2-c2ccc(CN3CCN(CC4CCN(C(=O)C[C@@H]5N=C(c6ccc(Cl)cc6)c6c(sc(C)c6C)-n6c(C)nnc65)CC4)CC3)cc2)c(O)cc1O [Compound 120, hydrochloride]" measurement_target="HSP90α (Homo sapiens)" result="6.00 to 7.00"
